I'd be grateful if you could share measured solubility for these entries.
Assay: physchem
Conditions: 60 °C, oil or lipid, thermodynamic from solid, solubility in squalene at 40 mg/mL, mixed with squalene at 60° C.

According to the records, this compound CCCCCCCCCCC(=O)O [Undecanoic Acid] displays solubility of > 40 mg/mL

Reported solubility ( CCCCCC/C=C\CCCCCCCC(=O)O [Palmitoleic Acid (16:1), Palmitoleic Acid] ) = > 40 mg/mL

// sample CCCCCCCCCCCCCCCCCCCC(=O)O [Arachidic Acid (20:0), Arachidic Acid] , its solubility was < 40 mg/mL

response.value for CCCCCCCC/C=C\CCCCCCCCCCCCCC(=O)O [Nervonic Acid (24:1), Nervonic Acid] (field: solubility) = > 40 mg/mL

solubility for CCCCCCCCCCCCCCCCCCCCC(=O)O [Heneicosanoic Acid] is < 40 mg/mL

Please fill in: solubility reported for CC/C=C\C/C=C\C/C=C\C/C=C\C/C=C\C/C=C\CCC(=O)O [Docosahexaenoic Acid (22:6), Docosahexaenoic Acid] = > 40 mg/mL

Lab note: CCCCCCCCCCCCCCC(=O)O [Pentadecanoic Acid] gave solubility of > 40 mg/mL

// recorded solubility for CCCCCCCCCCCCCC(=O)O [Myristic Acid (14:0), Myristic Acid] : < 40 mg/mL

For reference, reported solubility for CCCCCCCC/C=C/CCCCCCCC(=O)O [Elaidic Acid (18:1)-trans, Elaidic Acid] stands at > 40 mg/mL

// sample CCCCCCCCCCCCCCCCCCC(=O)O [Nonadecanoic Acid] , its solubility was < 40 mg/mL

Kindly note the recorded solubility for CCCCCCCCCCCCCCCCC(=O)O [Heptadecanoic Acid] , which is < 40 mg/mL

Input CC/C=C\C/C=C\C/C=C\CCCCCCCC(=O)O [Linolenic Acid (18:3), Linolenic Acid] . Output solubility: > 40 mg/mL

The measured solubility associated with CCCCCCCCCCCCCCCCCCCCCCCC(=O)O [Lignoceric Acid (24:0), Lignoceric Acid] reads < 40 mg/mL

Memo: CCCCCCCCCCCCC(=O)O [Tridecanoic Acid] , reported solubility: > 40 mg/mL

Sure, the documented solubility for CCCCCCCCCCCCCCCCCCCCCCC(=O)O [Tricosanoic Acid] is < 40 mg/mL

The compound identified as CCCCCCCC/C=C\CCCCCCCC(=O)O [Oleic Acid (18:1)-cis, Oleic Acid] registered its solubility at > 40 mg/mL

Record CCCCCCCCCCCCCCCCCCCCCC(=O)O [Behenic Acid (22:0), Behenic Acid] , field solubility: < 40 mg/mL

====

Assay: physchem
Details: 60 °C, oil or lipid, thermodynamic from solid
Exercise: for every item that follows, state its recorded solubility.

In plain terms, CCCCCCCCCCCC(=O)O has a documented solubility of > 40 mg/mL

Form field solubility, entry CCCCCCCC/C=C\CCCCCCCCCCCC(=O)O : > 40 mg/mL

Notebook: CCCCC/C=C\C/C=C\CCCCCCCC(=O)O , solubility read as > 40 mg/mL

====

Assay: Solubility of fatty acids in squalene
Conditions: 60 °C, oil or lipid, thermodynamic from solid
measured_metric: solubility

Per the record, CCCCCCCCCCC/C=C\CCCCC(=O)O has solubility of > 40 mg/mL

====

Task for the reader: assign each of the following compounds its reported solubility.
Assay: physchem
Details: 4 °C, oil or lipid, thermodynamic from solid

Summary for this compound, CCCCCCCC/C=C\CCCCCCCCCCCC(=O)O : solubility is > 40 mg/mL

The compound listed as CCCCCCCCCCCC(=O)O shows solubility equal to < 40 mg/mL

// CCCCC/C=C\C/C=C\CCCCCCCC(=O)O : solubility value = > 40 mg/mL

Where do these numbers come from? They come from patent US9636410B2.
